- Measurement description: growth inhibition of non-replicating M. tuberculosis (AID 488890);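 note: plate controls were DMSO cells for no effect and high antibiotic wells for full effect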
- Condition: Mycobacterium tuberculosis non-replicating, at 25 µM, stronger effect = higher value
The campaign covered roughly 320,000 compounds. About 1,300 (0.41%) were called active. Roughly 3% stayed inconclusive and do not appear here. Not all results are given here. Potency and affinity values are given separately.
Please provide measured inhibition for the entries that follow.

Recorded results for 6 compounds are shown here.
>>> assay_value("COc1ccc(CN2C(=O)c3cccnc3C2Nc2ccc(C)cc2)cc1 (centres undefined)")
"27%"
>>> assay_value("CC(=O)Nc1ccc(S(=O)(=O)N2CCSC2C(=O)O)cc1 (centres undefined)")
"1.73%"
>>> assay_value("O=C1c2cccc3cccc(c23)C(=O)N1CCCc1n[nH]c(=S)n1-c1ccccc1")
"-14.7%"
>>> assay_value("Fc1cccc(Cl)c1/C=C/c1cnc2ccccc2n1")
"13.9%"
>>> assay_value("O=C(COC(=O)c1ccco1)Nc1nnc(-c2ccccc2)o1")
"4.16%"
>>> assay_value("CCCCCCCC(=O)N1CCN(c2cc3c(cc2F)c(=O)c(C(=O)O)cn3CC)CC1")
"72.9%"

Look up inhibition for the entries below, preserving their order.
1. CCn1cc(C(=O)NN)c(=O)c2cc(F)c(N3CCN(C)CC3)cc21
2. Cc1ccc(NC(=O)CN(C)C(=O)CSc2ccccc2F)cc1
3. O=C(NCC(=O)N1CCc2ccccc2C1)c1ccc(Cl)cc1Cl
4. CC(=O)N1CCc2c(sc3c2c(=O)n(-c2ccccc2)c(=O)n3Cc2ccccc2Cl)C1
5. Cc1ccc(NC(=O)O/N=C/c2ccc(F)cc2)cc1
6. Cc1c(CCC(=O)N[C@@H](C)C(=O)O)c(=O)oc2cc3occ(-c4ccccc4)c3cc12
7. COc1ccc(NC(=S)N2CCNC(=O)C2CC(=O)Nc2cccc(Cl)c2C)cc1 (centres undefined)

1: -3.82%; 2: 1.97%; 3: 7.88%; 4: -8.11%; 5: 4.77%; 6: 0.57%; 7: 51.6%

Okay, here is my list. What is inhibition for each of these?
1. COCC(=O)N1CCC(Oc2ccc(C(=O)N3CCCCCC3)cc2)CC1
2. COC(=O)c1ccccc1OCCOCCOc1cccc2cccnc12
3. CC(=O)c1sc(NC(=O)CN2C(=O)CCC2=O)nc1C
4. CS(=O)(=O)N1CCc2cc(S(=O)(=O)Nc3ccc4c(c3)OCCO4)ccc21

1. -1.31%
2. -0.9%
3. -3.51%
4. 5.57%

For the 2 compounds below, give their inhibition values.
1. COc1ccc(-c2nnc(SCC(=O)N(C)C3CCS(=O)(=O)C3)n2C(C)C)cc1 (centres undefined)
2. CCOc1ccc(S(=O)(=O)N2CCC(C(=O)N3CCCCCC3)CC2)cc1C

-12.8%
21.6%

Respectfully, I request inhibition for each entry included below.
1. CCOC(=O)C1(Cc2ccc(OC)cc2)CCN(C(=O)c2cncs2)CC1
2. COc1ccc(-c2csc3ncnc(N4CCN(c5cccc(C)c5C)CC4)c23)cc1
3. Cn1c(=O)c(Oc2cc(Cl)cc(Cl)c2)nc2ccccc21
4. O=C(NNC(=O)c1cc2cc(Br)ccc2oc1=O)c1ccc(O)cc1O
5. CC#CCN(Cc1ccco1)C(=O)c1ccc(OC2CCN(Cc3ccccn3)CC2)cc1
6. O=C(NCCCn1ccnc1)Nc1ccc2c(c1)OCO2

1. -27.1%
2. 11.9%
3. 5.56%
4. 23.6%
5. 10.1%
6. -2.69%
